Data provenance: patent US20250236608A1

# key: entry, value: pIC50
Biological target: pEGFR (Tyr1068) in PC-9 cells (Ex19Del) (Homo sapiens (Human), UniProt P00533, DEL746-750)
Sequence (P00533 other isoform, or with tags, fused parts or gaps del 746-750): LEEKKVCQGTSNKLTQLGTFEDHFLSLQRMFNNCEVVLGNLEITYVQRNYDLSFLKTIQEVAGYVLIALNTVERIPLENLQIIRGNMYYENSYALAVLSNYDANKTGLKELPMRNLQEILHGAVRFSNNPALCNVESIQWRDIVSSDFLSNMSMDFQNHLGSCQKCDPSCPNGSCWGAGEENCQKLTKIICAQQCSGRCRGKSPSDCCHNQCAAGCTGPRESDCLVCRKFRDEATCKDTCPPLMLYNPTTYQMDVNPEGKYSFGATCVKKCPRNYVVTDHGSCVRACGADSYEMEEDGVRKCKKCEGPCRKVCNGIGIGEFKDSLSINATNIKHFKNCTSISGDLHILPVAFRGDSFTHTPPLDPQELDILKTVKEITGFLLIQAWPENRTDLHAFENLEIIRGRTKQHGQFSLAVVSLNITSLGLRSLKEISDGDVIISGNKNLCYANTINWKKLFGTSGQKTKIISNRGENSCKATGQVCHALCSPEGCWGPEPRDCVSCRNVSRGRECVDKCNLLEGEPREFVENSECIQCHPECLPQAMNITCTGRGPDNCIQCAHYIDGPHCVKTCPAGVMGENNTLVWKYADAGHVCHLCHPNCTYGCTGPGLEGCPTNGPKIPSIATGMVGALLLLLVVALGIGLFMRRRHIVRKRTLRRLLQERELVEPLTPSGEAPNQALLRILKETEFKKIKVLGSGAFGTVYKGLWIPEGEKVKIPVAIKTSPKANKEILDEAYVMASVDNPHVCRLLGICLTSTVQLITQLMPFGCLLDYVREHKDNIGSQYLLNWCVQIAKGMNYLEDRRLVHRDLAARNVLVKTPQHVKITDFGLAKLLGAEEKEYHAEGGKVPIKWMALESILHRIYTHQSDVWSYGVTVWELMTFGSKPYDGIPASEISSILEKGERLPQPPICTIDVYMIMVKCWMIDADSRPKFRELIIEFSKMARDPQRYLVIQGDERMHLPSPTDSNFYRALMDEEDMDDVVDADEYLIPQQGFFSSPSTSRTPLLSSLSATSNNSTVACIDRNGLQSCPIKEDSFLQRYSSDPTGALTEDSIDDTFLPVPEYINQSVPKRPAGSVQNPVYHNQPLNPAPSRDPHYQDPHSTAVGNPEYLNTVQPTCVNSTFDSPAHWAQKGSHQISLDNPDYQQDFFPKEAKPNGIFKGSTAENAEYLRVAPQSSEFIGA
Assay: PC-9 pEGFR AlphaLISA assay
Format: cell-based
Conditions: 4 hours incubation, p-EGFR (Tyr1068) AlphaLISA, read-out: Ext pEGFR_PC-9 Ex19Del IC50
Note: pIC50 values are expressed as the negative base-10 logarithm of concentration in M.

Record excerpt, results attached:
- COMPOUND: "COc1cc2c(-c3cn(C)nc3-c3ccccc3)ncnc2cc1N1CC2(CN(C(C)=O)C2)C1"
  REPORTED: 8.80
- COMPOUND: "CCn1cc(-c2ncnc3cc(OC)c(NC(=O)c4cnn(C(F)(F)F)c4)nc23)c(-c2ccccc2)n1"
  REPORTED: 8.96
- COMPOUND: "COc1cc2ncnc(-c3cn(C)nc3-c3ccccc3)c2nc1O[C@H](C)c1cscn1 (single isomer, unassigned)"
  REPORTED: 8.92
- COMPOUND: "CCn1cc(-c2ncnc3cc(OC)c(NC(=O)c4cnn(CCN(C)C)c4)nc23)c(-c2ccccc2)n1"
  REPORTED: 9.40
- COMPOUND: "COc1cc2ncnc(-c3cn(C)nc3-c3ccccc3)c2cc1NC(=O)c1cnc(C2CC2)s1"
  REPORTED: 9.05
- COMPOUND: "CCn1cc(-c2ncnc3cc(OC(F)F)c(NC(=O)C4CC4)cc23)c(-c2ccccc2)n1"
  REPORTED: 8.80

Here is the next item to consider.
What the record says about `COc1cc2ncnc(-c3cn(C)nc3-c3ccccc3)c2cc1NC(=O)c1ccccc1N1CCNCC1` : pIC50 is 8.17

====

Biological target: EGFR L858R (Homo sapiens (Human), UniProt P00533, L858R)
Sequence (P00533 25-1210 L858R): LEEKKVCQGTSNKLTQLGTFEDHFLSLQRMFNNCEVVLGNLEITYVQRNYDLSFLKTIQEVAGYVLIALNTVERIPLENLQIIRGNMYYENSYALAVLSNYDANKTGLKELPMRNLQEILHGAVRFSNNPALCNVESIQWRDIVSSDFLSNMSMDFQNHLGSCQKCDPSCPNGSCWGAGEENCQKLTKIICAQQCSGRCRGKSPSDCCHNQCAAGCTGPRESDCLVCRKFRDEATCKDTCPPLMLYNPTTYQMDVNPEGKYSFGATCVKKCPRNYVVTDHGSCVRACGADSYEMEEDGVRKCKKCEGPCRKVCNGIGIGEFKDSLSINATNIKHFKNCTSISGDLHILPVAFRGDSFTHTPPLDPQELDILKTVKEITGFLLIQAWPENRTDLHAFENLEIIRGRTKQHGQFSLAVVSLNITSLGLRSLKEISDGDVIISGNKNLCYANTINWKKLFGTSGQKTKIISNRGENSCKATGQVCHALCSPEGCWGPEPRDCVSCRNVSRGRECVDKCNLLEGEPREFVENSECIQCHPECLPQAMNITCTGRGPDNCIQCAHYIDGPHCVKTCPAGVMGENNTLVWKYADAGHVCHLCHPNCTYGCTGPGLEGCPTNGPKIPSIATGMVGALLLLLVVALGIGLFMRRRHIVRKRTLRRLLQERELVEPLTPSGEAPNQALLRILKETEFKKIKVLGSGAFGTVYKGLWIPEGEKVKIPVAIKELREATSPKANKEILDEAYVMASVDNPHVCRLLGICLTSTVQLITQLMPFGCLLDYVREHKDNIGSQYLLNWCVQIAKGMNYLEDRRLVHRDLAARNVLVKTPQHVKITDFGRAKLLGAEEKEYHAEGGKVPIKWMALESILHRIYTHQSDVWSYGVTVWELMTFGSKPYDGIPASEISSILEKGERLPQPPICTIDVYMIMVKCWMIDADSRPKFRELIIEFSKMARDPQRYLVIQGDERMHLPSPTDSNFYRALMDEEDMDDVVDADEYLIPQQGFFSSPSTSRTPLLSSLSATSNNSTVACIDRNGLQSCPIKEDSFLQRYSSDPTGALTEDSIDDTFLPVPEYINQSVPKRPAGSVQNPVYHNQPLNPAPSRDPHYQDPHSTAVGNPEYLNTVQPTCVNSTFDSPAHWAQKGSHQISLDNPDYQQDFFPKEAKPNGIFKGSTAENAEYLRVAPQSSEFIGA
Test: Biochemical EGFR inhibition assay, EGFR L858R
Details: Caliper mobility shift; 1.0 mM ATP or ATP Km; read-out: Enz EGFR_L858R IC50
REPORTED_PROPERTY: IC50
Give the figure together with its unit, number first.

- SMILES_TEXT: "COc1cc2ncnc(-c3cn(C)nc3-c3ccccc3)c2nc1O[C@H](C)c1nnnn1C"
  ASSAY_TARGET: "EGFR L858R (Homo sapiens (Human), UniProt P00533, L858R)"
  REPORTED_PROPERTY: "IC50"
  REPORTED: "4.4 nM"
- SMILES_TEXT: "COc1cc2ncnc(-c3cn(C)nc3-c3ccccc3)c2cc1NC(=O)c1ccn(C(C)C)n1"
  ASSAY_TARGET: "EGFR L858R (Homo sapiens (Human), UniProt P00533, L858R)"
  REPORTED_PROPERTY: "IC50"
  REPORTED: "1.2 nM"
- SMILES_TEXT: "COc1cc2ncnc(-c3cn(C)nc3-c3ccccc3)c2cc1-c1ccc(OC)c2n[nH]cc12"
  ASSAY_TARGET: "EGFR L858R (Homo sapiens (Human), UniProt P00533, L858R)"
  REPORTED_PROPERTY: "IC50"
  REPORTED: "8.2 nM"

IC50 recorded for this compound, `CCc1ccc(-c2cc3c(-c4cn(C)nc4-c4ccccc4)ncnc3cc2OC)c2c[nH]nc12` , is 7.6 nM
